The entries that follow carry log10 IC50 values tested on Aurora kinase A (Homo sapiens, UniProt O14965), drawn from several published reports.
SYSTEM: Aurora kinase A (Homo sapiens, UniProt O14965)
Sequence (O14965 whole entry): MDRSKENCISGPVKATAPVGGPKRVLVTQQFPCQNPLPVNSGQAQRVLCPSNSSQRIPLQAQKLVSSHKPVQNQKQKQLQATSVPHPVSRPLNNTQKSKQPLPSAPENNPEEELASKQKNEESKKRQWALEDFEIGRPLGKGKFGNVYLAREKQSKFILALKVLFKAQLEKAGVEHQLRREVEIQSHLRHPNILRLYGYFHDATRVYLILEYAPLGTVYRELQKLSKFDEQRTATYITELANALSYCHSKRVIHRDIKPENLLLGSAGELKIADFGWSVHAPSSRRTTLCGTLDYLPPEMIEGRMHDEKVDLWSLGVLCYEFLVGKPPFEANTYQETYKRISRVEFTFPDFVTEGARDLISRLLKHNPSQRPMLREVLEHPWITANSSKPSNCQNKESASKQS
Please note: log10 values; quantity IC50; unit nM.

Sample records with log10 IC50:
# COMPOUND, SYSTEM, log10 IC50
data = [
    ("Cc1ccc(C(=O)Nc2ncc(Nc3ncnc4c3NCc3ccccc3O4)cn2)cc1", "Aurora kinase A (Homo sapiens, UniProt O14965)", 3.57),
    ("Nc1nc(-c2ccc3c(N)n[nH]c3c2)cc(N2CCCC(NC(=O)c3ccccc3)C2)n1 (racemic)", "Aurora kinase A (Homo sapiens, UniProt O14965)", 3.10),
]

So for Cc1cn2c(-c3cnn(CC(=O)Nc4cccc(F)c4F)c3)cnc2c(Nc2cc(CN3CCCCC3)ns2)n1 , the logged log10 IC50 turned out to be 2.09

So for Nc1ccc(CCNc2ncnc3oc(-c4ccccc4)c(-c4ccccc4)c23)cc1 , the logged log10 IC50 turned out to be 2.81

So for COc1cc2ncnc(Nc3ccc(-c4nc5ccccc5s4)cc3C)c2cc1OC , the logged log10 IC50 turned out to be 3.64
